Measured values drawn from patent US8791163B2 for this set.

# TARGET_SYSTEM: cloned human MT1 receptors (Homo sapiens, UniProt P48039)
# Construct: expressed in transfected cells
# Sequence (P48039 whole entry): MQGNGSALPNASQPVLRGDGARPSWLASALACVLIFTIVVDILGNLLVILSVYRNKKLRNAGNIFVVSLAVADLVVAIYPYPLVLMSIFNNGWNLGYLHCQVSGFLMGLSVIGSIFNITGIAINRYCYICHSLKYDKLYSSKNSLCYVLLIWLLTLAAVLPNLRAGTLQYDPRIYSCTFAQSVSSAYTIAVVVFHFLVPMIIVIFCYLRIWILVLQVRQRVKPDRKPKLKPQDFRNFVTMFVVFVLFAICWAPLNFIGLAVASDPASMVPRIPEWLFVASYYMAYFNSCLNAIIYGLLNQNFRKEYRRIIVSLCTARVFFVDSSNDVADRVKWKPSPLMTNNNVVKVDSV
# ASSAY_OVERVIEW: 2-[125I]iodomelatonin competition binding, human MT1 in NIH3T3 cells
# STUDY_CONDITIONS: calculated from IC50 by Cheng-Prusoff, mean of at least three determinations
MEASURED_ATTRIBUTE: MT1 pKi
Answer using only a numeral; do not append any unit.

- MOLECULE: "COc1cccc(N(CCNC(C)=O)c2cccc(OC)c2)c1 [5c]"
  ASSAY_VALUE: 7.72
- MOLECULE: "CC(=O)NCCN(c1ccccc1)c1cccc(OCCCCc2ccccc2)c1 [5i]"
  ASSAY_VALUE: 7.45
- MOLECULE: "COc1cccc(N(C)CCNC(C)=O)c1 [5j]"
  ASSAY_VALUE: 9.09
- MOLECULE: "COc1ccc(N(CCNC(C)=O)c2ccccc2)cc1 [5e]"
  ASSAY_VALUE: 6.11
- MOLECULE: "COc1cccc(N(CCNC(C)=O)Cc2ccccc2)c1 [5k]"
  ASSAY_VALUE: 7.30

Sure, the documented MT1 pKi for CC(=O)NCCN(c1ccccc1)c1ccccc1 [5a, N-[2-(diphenylamino)ethyl]acetamide] is 6.90

Briefly, MT1 pKi measured for CC(=O)NCCN(c1ccccc1)c1cccc(Br)c1 [5f] : 7.77

Entry COc1cccc(N(CCN(C)C(C)=O)c2ccccc2)c1 [compound 6] ; MT1 pKi = 5.89

The molecule COc1ccc(N(CCNC(C)=O)c2cccc(OC)c2)cc1 [5d] showed MT1 pKi equal to 7.00

For record COc1cccc(NCCNC(C)=O)c1 [5l] the listed MT1 pKi is 8.28

Looking up CCCC(=O)NCCN(c1ccccc1)c1cccc(OC)c1 [5n] , I see its MT1 pKi listed as 8.38

Note to self: MT1 pKi recorded for COc1cccc(N(C)CCCNC(C)=O)c1 [5m] was 9.08

So for COc1cccc(N(CCNC(C)=O)c2ccc3ccccc3c2)c1 [5g] , the logged MT1 pKi turned out to be 6.88

----------
# TARGET_SYSTEM: cloned human MT1 receptors (Homo sapiens)
# Construct: expressed in transfected cells
# ASSAY_OVERVIEW: [35S]GTPγS binding assay, NIH3T3 cells expressing human MT1
# Type: biochemical
# STUDY_CONDITIONS: maximal net effect relative to MLT
# Experimental: Membranes were incubated for 90 min at 37° C. in binding buffer (Tris/HCl 50 mM, pH 7.4). The final membrane concentration was 5-10 μg of protein per tube. […] The pKi values are the mean of at least three independent determinations performed in duplicate. […] Nonspecific binding was assessed using non-radiolabeled GTPγS (10 μM). […]
MEASURED_ATTRIBUTE: MT1 IAr ± SEM (relative intrinsic activity)
Response field accepts a number only; no unit should be typed.

Worked set:
- COMPOUND: "COc1cccc(N(C)CCNC(C)=O)c1 [5j]"
  ASSAY_VALUE: 0.95
- COMPOUND: "COc1cccc(N(CCNC(C)=O)c2ccc3ccccc3c2)c1 [5g]"
  ASSAY_VALUE: 0.17

Kindly note the recorded MT1 IAr ± SEM (relative intrinsic activity) for COc1cccc(N(CCNC(=O)C2CCC2)c2ccccc2)c1 [5o] , which is 0.22
